# Test system: KM12 colon
# MEASUREMENT_NOTES: NCI-60 one-dose screen, 48 h (100 = growth as untreated, 0 = no growth, -100 = all killed)
# MEASUREMENT_PARAMETERS: 10 µM unless noted
Compounds without any hit were thinned out: in the full panel of roughly 83,000, 20% have a hit. Where a SMILES comes first, the peptide text is derived from it. [ ]: non-standard residue; d: D form. ξ: configuration not given here. ξD = NC(CC(=O)O)C(=O)O
growth reference

{"MOLECULE": "Nc1ccc(Oc2ccccc2)c(Cl)c1", "growth / %": 104}
{"MOLECULE": "Oc1ccc(Cl)cc1Cc1cc(Cl)ccc1O", "growth / %": 72.5}
{"MOLECULE": "NCC(=O)NC(CC(=O)O)C(=O)O (configuration not stated) (H-Gly-[ξD]-OH)", "growth / %": 107}
{"MOLECULE": "CCCc1cc(=O)oc2c3c(c4c(c12)OC(C)(C)CC4)OC(C)[C@H](C)[C@@H]3O (some centres not stated)", "growth / %": 97.8}
{"MOLECULE": "CC(=O)c1c(O)c(C)c(O)c2c1OC1=CC(=O)C(C(C)=O)C(=O)C12C (configuration not stated)", "growth / %": 72.6}
{"MOLECULE": "Cc1cc(C)c(C#N)c(Sc2nc(C)c([N+](=O)[O-])c(C)c2C#N)n1", "growth / %": 60.8}
{"MOLECULE": "CCOC(=O)/C(=C\\c1ccc2ccccc2c1)P(=O)(OCC)OCC", "growth / %": 39.2}

These entries and their values trace back to PubChem BioAssay (NCI).
